Listed here are molecules together with their documented Follow-up HNF4α (fold activation of reporter activity).
# TEST_TARGET: Gal4-HNF4α (human HNF4α LBD) (Homo sapiens, UniProt P41235)
# Construct: uniprot entry: P41235-1, residues 142-377; expressed in transfected cells; host or cells: HEK293T
# Sequence (P41235 142-377): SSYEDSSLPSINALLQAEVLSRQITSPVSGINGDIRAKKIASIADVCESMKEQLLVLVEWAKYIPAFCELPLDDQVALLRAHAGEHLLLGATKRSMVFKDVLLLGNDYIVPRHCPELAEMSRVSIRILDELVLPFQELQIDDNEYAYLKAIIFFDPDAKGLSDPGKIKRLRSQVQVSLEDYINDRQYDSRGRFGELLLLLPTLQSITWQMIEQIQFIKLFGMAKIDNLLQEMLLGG
# PROCEDURE_TEXT: Hybrid Gal4-HNF4α reporter gene assay in transiently transfected HEK293T cells
# Assay type: cell-based
# STATED_CONDITIONS: 50 µM; mean ± SD, at least four repeats
ASSAY_READOUT: Follow-up HNF4α (fold activation of reporter activity)

{"columns": ["COMPOUND_STRING", "RESULT"],
 "data": [
  ["Nc1nc2cc(C(=O)c3ccccc3)ccc2[nH]1", "1.5 ± 0.2 (50 µM) fold activation"],
  ["OC(c1ccc(F)cc1)c1ccc(F)cc1", "0.75 ± 0.05 (50 µM) fold activation"],
  ["Nc1ncns1", "3.0 ± 0.3 (50 µM) fold activation"],
  ["Cc1cc(C(C)(C)CC(C)(C)C)ccc1O", "1.1 ± 0.2 (50 µM) fold activation"],
  ["Cc1nc(-c2ccccc2)c(-c2ccccc2)o1", "1.1 ± 0.2 (50 µM) fold activation"],
  ["COc1ccc2c(c1)OCC2=O", "1.3 ± 0.2 (50 µM) fold activation"]
]}
